Values compiled from the kinase profiling compilation of Christmann-Franck et al. (2016).

assay_target: TNK2 (human) (UniProt Q07912)
Sequence (Q07912 whole entry, looked up): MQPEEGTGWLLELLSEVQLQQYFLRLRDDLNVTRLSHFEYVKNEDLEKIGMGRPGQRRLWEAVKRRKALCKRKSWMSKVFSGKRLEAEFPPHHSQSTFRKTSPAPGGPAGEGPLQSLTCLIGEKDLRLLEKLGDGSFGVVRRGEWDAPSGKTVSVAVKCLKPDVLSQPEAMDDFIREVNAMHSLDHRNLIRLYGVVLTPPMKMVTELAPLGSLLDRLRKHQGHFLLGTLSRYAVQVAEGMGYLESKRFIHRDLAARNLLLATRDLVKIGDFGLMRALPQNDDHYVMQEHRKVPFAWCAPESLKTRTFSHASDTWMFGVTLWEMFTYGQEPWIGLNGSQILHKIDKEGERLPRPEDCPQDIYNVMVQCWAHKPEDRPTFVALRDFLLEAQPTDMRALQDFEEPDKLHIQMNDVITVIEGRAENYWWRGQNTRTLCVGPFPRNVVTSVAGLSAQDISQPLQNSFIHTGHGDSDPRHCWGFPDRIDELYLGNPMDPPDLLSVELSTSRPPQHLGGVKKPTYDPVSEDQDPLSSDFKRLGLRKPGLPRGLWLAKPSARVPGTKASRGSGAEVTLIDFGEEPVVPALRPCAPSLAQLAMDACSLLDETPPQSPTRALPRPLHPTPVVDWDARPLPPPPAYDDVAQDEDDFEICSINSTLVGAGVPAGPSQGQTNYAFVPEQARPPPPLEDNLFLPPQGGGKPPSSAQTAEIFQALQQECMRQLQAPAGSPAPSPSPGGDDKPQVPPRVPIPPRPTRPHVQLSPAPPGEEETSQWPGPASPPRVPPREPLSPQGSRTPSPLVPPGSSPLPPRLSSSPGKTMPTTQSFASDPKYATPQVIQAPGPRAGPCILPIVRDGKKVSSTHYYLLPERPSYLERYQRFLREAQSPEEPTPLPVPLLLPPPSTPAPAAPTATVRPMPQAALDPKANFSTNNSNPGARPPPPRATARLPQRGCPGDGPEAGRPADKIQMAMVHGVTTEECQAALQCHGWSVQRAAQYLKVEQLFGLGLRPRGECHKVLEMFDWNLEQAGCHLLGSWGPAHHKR
assay_info: radiometric filter-binding kinase assay, Kinase HotSpot
test_parameters: compound 0.5 µM; ATP 10 µM
test_readout: residual activity (%)
Numbers only, in %.

// each compound listed below needs its residual activity
1. CCCNC(=O)Nc1ccc(Oc2ncnc3cc(OC)c(OC)cc23)cc1Cl
2. NC(=O)c1ccc(N(C(N)=O)c2c(F)cccc2F)nc1-c1ccc(F)cc1F
3. O=c1cc(N2CCNCC2)oc2c(-c3ccccc3)cccc12
4. CC(C)n1cnc2c(Nc3cccc(Cl)c3)nc(NCCO)nc21

96.5
96.1
90.7
70.8

Fill in residual activity for each of the 5 compounds listed.
1. Clc1ccc(Nc2nnc(Cc3ccncc3)c3ccccc23)cc1
2. Nc1n[nH]c2nnc(-c3c(-c4ccccc4)nn4ccccc34)cc12
3. COc1ccc(-c2cnc3c(-c4ccsc4)cnn3c2)cc1
4. Nc1nc(Nc2ccc(S(N)(=O)=O)cc2)nn1C(=S)Nc1c(F)cccc1F
5. O=C(NC(NC(=S)Nc1ccc(F)c([N+](=O)[O-])c1)C(Cl)(Cl)Cl)C(c1ccccc1)c1ccccc1 (stereo not given)

1: 91.7; 2: 82.7; 3: 92.2; 4: 6.41; 5: 98

Return reported residual activity. Input compound: CS(=O)c1ccc(-c2nc(-c3ccc(F)cc3)c(-c3ccncc3)[nH]2)cc1 (stereo not given)
82.1

----------
Kindly supply the reported residual activity values for the records listed here.
assay_target: IKBKE (human) (UniProt Q14164)
Sequence (Q14164 whole entry, looked up): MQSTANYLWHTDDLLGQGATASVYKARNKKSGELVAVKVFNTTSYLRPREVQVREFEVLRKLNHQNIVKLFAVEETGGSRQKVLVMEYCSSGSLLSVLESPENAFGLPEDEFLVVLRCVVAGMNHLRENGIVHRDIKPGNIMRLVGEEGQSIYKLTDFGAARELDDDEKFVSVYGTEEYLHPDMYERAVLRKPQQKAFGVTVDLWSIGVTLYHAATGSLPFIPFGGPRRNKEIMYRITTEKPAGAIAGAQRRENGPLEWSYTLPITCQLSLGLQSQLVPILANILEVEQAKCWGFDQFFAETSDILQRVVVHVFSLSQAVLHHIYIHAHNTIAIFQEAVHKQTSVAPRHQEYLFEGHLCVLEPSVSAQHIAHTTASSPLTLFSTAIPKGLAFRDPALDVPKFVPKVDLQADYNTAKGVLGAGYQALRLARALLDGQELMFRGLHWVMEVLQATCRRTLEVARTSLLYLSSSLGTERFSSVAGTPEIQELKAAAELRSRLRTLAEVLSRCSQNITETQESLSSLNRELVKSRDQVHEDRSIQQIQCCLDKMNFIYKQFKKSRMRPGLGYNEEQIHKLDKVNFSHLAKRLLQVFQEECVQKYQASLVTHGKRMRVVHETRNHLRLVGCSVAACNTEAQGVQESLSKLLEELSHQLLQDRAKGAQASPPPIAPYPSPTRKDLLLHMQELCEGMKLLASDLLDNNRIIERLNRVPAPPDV
assay_info: radiometric filter-binding kinase assay, Kinase HotSpot
test_parameters: compound 0.5 µM; ATP 10 µM
Give bare numbers, in %.

Use these answered entries as a reference point.
O=C1Cc2c([nH]c3ccc([N+](=O)[O-])cc23)-c2ccccc2N1 ... 93.4
Nc1nc(Nc2ccc(S(N)(=O)=O)cc2)nn1C(=O)c1c(F)cccc1F ... 95.9
CC(C)(C)c1nc2c3ccc(F)cc3c3c(=O)[nH]ccc3c2[nH]1 ... 25.4
O=c1cc(-c2cccc3c2Sc2ccccc2S3)oc(N2CCOCC2)c1 ... 96.5

Please report residual activity for every entry that follows.
1. O=C(Nc1ccc(Cl)cc1)c1ccccc1NCc1ccncc1
2. CSc1nc(-c2ccc(F)cc2)c(-c2ccnc(NC(C)c3ccccc3)c2)[nH]1 (stereo not given)
3. CC(C)[C@H](CO)Nc1nc(Nc2cccc(Cl)c2)c2ncn(C(C)C)c2n1
4. Oc1ccc(-c2nc(-c3ccc(F)cc3)c(-c3ccncc3)[nH]2)cc1
5. Clc1ccc(Nc2nnc(Cc3ccncc3)c3ccccc23)cc1
6. O=C1Nc2cc(Br)ccc2/C1=C1/Nc2ccccc2/C1=N\O
7. NC(=O)c1ccc(N(C(N)=O)c2c(F)cccc2F)nc1-c1ccc(F)cc1F
8. O=C1Nc2ccccc2/C1=C\c1c(Cl)[nH]c2ccccc12

98.9
84
99.2
101
95.7
66.3
88
98

// for each compound below, give its residual activity
1. CS(=O)c1ccc(-c2nc(-c3ccc(F)cc3)c(-c3ccncc3)[nH]2)cc1 (stereo not given)
2. CCN1/C(=C/C(C)=O)Sc2ccc(OC)cc21
3. CCCNC(=O)Nc1ccc(Oc2ncnc3cc(OC)c(OC)cc23)cc1Cl

1. 98
2. 99
3. 93.5

For every record below, what is its residual activity?
1. O=c1cc(N2CCNCC2)oc2c(-c3ccccc3)cccc12
2. CC(C)n1cnc2c(Nc3cccc(Cl)c3)nc(NCCO)nc21
3. Nc1nc(Nc2ccc(S(N)(=O)=O)cc2)nn1C(=S)Nc1c(F)cccc1F
4. COc1cc2nccc(Oc3ccc(NC(=S)NC(=O)c4ccccc4C)cc3)c2cc1OC
5. COc1ccc(-c2cnc3c(-c4ccsc4)cnn3c2)cc1

1: 88.1; 2: 97.6; 3: 67.2; 4: 96.2; 5: 85.5

Field: residual activity. Fill in for each record below.
1. Nc1n[nH]c2nnc(-c3c(-c4ccccc4)nn4ccccc34)cc12
2. O=C(NC(NC(=S)Nc1ccc(F)c([N+](=O)[O-])c1)C(Cl)(Cl)Cl)C(c1ccccc1)c1ccccc1 (stereo not given)

1. 95.5
2. 106

// for each compound below, give its residual activity
1. COc1cc2ncnc(Nc3ccc(F)c(Cl)c3)c2cc1OCCCN1CCOCC1
2. Cc1cc2ncc(-c3ccccc3)nc2cc1C
3. Cc1ccc(NC(=O)c2ccc(CN3CCN(C)CC3)cc2)cc1Nc1nc(-c2cccnc2)cs1

1. 89.9
2. 101
3. 97.2

----------
assay_target: FGFR3 (human)
assay_info: radiometric filter-binding kinase assay, Kinase HotSpot
test_parameters: compound 0.5 µM; ATP 10 µM
test_readout: residual activity (%)
One number for each entry, in %.

Please supply residual activity for each of the following items, keeping them in order.
1. Cc1ccc(NC(=O)c2ccc(CN3CCN(C)CC3)cc2)cc1Nc1nc(-c2cccnc2)cs1
2. CCN1/C(=C/C(C)=O)Sc2ccc(OC)cc21
3. Clc1ccc(Nc2nnc(Cc3ccncc3)c3ccccc23)cc1
4. CC(C)[C@H](CO)Nc1nc(Nc2cccc(Cl)c2)c2ncn(C(C)C)c2n1
5. O=C(NC(NC(=S)Nc1ccc(F)c([N+](=O)[O-])c1)C(Cl)(Cl)Cl)C(c1ccccc1)c1ccccc1 (stereo not given)
6. COc1ccc(-c2cnc3c(-c4ccsc4)cnn3c2)cc1
7. Nc1nc(Nc2ccc(S(N)(=O)=O)cc2)nn1C(=S)Nc1c(F)cccc1F
8. O=C1Nc2ccccc2/C1=C\c1c(Cl)[nH]c2ccccc12

94.3
99.1
91.5
99.2
96.8
81.5
4.96
101

Would you mind listing residual activity for each of the following compounds?
1. Nc1nc(Nc2ccc(S(N)(=O)=O)cc2)nn1C(=O)c1c(F)cccc1F
2. CC(C)n1cnc2c(Nc3cccc(Cl)c3)nc(NCCO)nc21
3. Cc1cc2ncc(-c3ccccc3)nc2cc1C
4. Nc1n[nH]c2nnc(-c3c(-c4ccccc4)nn4ccccc34)cc12
5. CC(C)(C)c1nc2c3ccc(F)cc3c3c(=O)[nH]ccc3c2[nH]1
6. CCCNC(=O)Nc1ccc(Oc2ncnc3cc(OC)c(OC)cc23)cc1Cl
7. O=C1Nc2cc(Br)ccc2/C1=C1/Nc2ccccc2/C1=N\O

[46.4, 95.1, 98, 102, 93, 84.5, 54.6]

Give measured residual activity for every item shown.
1. COc1cc2nccc(Oc3ccc(NC(=S)NC(=O)c4ccccc4C)cc3)c2cc1OC
2. NC(=O)c1ccc(N(C(N)=O)c2c(F)cccc2F)nc1-c1ccc(F)cc1F
3. O=C(Nc1ccc(Cl)cc1)c1ccccc1NCc1ccncc1
4. O=c1cc(-c2cccc3c2Sc2ccccc2S3)oc(N2CCOCC2)c1
5. O=C1Cc2c([nH]c3ccc([N+](=O)[O-])cc23)-c2ccccc2N1
6. CSc1nc(-c2ccc(F)cc2)c(-c2ccnc(NC(C)c3ccccc3)c2)[nH]1 (stereo not given)

1. 88.8
2. 90.2
3. 92.2
4. 94.7
5. 90.5
6. 83.7

----------
assay_target: MAP3K2 (human) (UniProt Q9Y2U5)
Sequence (Q9Y2U5 whole entry, looked up): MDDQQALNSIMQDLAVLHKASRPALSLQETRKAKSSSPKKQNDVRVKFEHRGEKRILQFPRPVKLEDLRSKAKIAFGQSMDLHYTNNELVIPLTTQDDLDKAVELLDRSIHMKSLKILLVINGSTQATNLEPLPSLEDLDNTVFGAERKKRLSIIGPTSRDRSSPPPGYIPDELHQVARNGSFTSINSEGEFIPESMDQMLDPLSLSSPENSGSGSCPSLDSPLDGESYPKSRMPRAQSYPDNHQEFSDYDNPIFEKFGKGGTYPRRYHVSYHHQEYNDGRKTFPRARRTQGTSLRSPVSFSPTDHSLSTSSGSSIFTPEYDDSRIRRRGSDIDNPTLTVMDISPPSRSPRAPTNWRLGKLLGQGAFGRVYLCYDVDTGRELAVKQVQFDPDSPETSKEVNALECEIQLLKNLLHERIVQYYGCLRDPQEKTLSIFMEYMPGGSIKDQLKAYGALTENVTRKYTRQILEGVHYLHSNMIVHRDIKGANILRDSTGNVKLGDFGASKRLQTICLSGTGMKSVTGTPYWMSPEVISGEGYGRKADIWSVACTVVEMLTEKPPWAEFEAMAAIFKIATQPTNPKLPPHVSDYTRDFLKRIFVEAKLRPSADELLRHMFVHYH
assay_info: radiometric filter-binding kinase assay, Kinase HotSpot
test_parameters: compound 0.5 µM; ATP 10 µM
Give residual activity for every item shown.
Please format your answer as a value with the unit trailing.

Nc1nc(Nc2ccc(S(N)(=O)=O)cc2)nn1C(=S)Nc1c(F)cccc1F ... -0.498%
O=C(Nc1ccc(Cl)cc1)c1ccccc1NCc1ccncc1 ... 92.8%
COc1ccc(-c2cnc3c(-c4ccsc4)cnn3c2)cc1 ... 98.7%
Cc1cc2ncc(-c3ccccc3)nc2cc1C ... 105%

Go through the items and report each one's residual activity.
1. CC(C)n1cnc2c(Nc3cccc(Cl)c3)nc(NCCO)nc21
2. C#Cc1cccc(Nc2ncnc3cc(OCCOC)c(OCCOC)cc23)c1
3. COc1cc2nccc(Oc3ccc(NC(=S)NC(=O)c4ccccc4C)cc3)c2cc1OC
4. CC(C)(C)c1nc2c3ccc(F)cc3c3c(=O)[nH]ccc3c2[nH]1
5. Nc1nc(Nc2ccc(S(N)(=O)=O)cc2)nn1C(=O)c1c(F)cccc1F
6. CCCNC(=O)Nc1ccc(Oc2ncnc3cc(OC)c(OC)cc23)cc1Cl
7. Nc1n[nH]c2nnc(-c3c(-c4ccccc4)nn4ccccc34)cc12
8. Cc1ccc(NC(=O)c2ccc(CN3CCN(C)CC3)cc2)cc1Nc1nc(-c2cccnc2)cs1

["97.6%", "117%", "83.1%", "33.9%", "11.3%", "89.5%", "97.8%", "102%"]

# batch: return residual activity for each of the 4 compounds below
1. CSc1nc(-c2ccc(F)cc2)c(-c2ccnc(NC(C)c3ccccc3)c2)[nH]1 (stereo unspecified)
2. CCN1/C(=C/C(C)=O)Sc2ccc(OC)cc21
3. Oc1ccc(-c2nc(-c3ccc(F)cc3)c(-c3ccncc3)[nH]2)cc1
4. NC(=O)c1ccc(N(C(N)=O)c2c(F)cccc2F)nc1-c1ccc(F)cc1F

1: 101%; 2: 101%; 3: 95%; 4: 122%

Would you mind giving residual activity for every compound in the list below?
1. O=C1Nc2cc(Br)ccc2/C1=C1/Nc2ccccc2/C1=N\O
2. O=c1cc(N2CCNCC2)oc2c(-c3ccccc3)cccc12

90.3%
105%

For each of the compounds below, note its residual activity.
1. O=C1Nc2ccccc2/C1=C\c1c(Cl)[nH]c2ccccc12
2. O=C1Cc2c([nH]c3ccc([N+](=O)[O-])cc23)-c2ccccc2N1
3. O=C(NC(NC(=S)Nc1ccc(F)c([N+](=O)[O-])c1)C(Cl)(Cl)Cl)C(c1ccccc1)c1ccccc1 (stereo unspecified)
4. CC(C)[C@H](CO)Nc1nc(Nc2cccc(Cl)c2)c2ncn(C(C)C)c2n1
5. CS(=O)c1ccc(-c2nc(-c3ccc(F)cc3)c(-c3ccncc3)[nH]2)cc1 (stereo unspecified)

1. 94%
2. 78%
3. 96.8%
4. 97.8%
5. 95.3%
